test system: XIP peptide (Xip251-270); test: small-molecule binders of XIP peptide, primary screen, biochemical, small-molecule microarray, fluorescence 635/667 nm, 0.5 µg/mL protein (AID 1183); settings: small-molecule microarray binding, fluorescence 635 nm; higher = more signal
Recorded endpoint: composite z-score
Number, no unit, nothing else.

Sample answers from the record:
Molecule	Target or test system	composite z-score
CS(=O)(=O)CCOC(=O)C1=CC(c2ccc(CO)cc2)=CC(C2CC2)N(Cc2cc3c(cc2Br)OCO3)C=C1C(=O)OCCS(C)(=O)=O (centres undefined)	XIP peptide (Xip251-270)	0.639
COCCOC(=O)N1C(=O)[C@@]2(c3cc(C#CC4(O)CCCCCC4)ccc31)[C@H](C(=O)N1CCCCCCC1)[C@H]1C(=O)O[C@H](c3ccccc3)[C@H](c3ccccc3)N1[C@@H]2c1ccccc1OCCO	XIP peptide (Xip251-270)	0.762
COC(=O)c1ccc(OC)c(/C=C\CC(OC(C)=O)c2ccccc2)c1 (centres undefined)	XIP peptide (Xip251-270)	0.501
O=C(O)[C@H]1C[C@H]2C(=O)NCC(=O)N2[C@H]1c1ccc(O)cc1	XIP peptide (Xip251-270)	-0.212
COc1ccc(C(O)C2C=CC3C(=O)NC(=O)C3N2Nc2ccccn2)cc1OCc1ccccc1 (centres undefined)	XIP peptide (Xip251-270)	-0.0026
CCOC(=O)C1=CCC(C(C)(C)C)N(S(=O)(=O)c2ccc(C)cc2)C1 (centres undefined)	XIP peptide (Xip251-270)	0.806
CCOC(=O)C1=CC[C@@H](c2ccccc2Cl)N(S(=O)(=O)c2ccc(C)cc2)C1	XIP peptide (Xip251-270)	0.488
O=C(CS)NCCCCCCNC(=O)[C@@H]1C[C@@H]2C(=O)N3CCC[C@H]3C(=O)N2[C@@H]1c1ccc(O)cc1	XIP peptide (Xip251-270)	0.422

Could you now consider this next molecule?
The reported composite z-score of the molecule CS(=O)(=O)CCOC(=O)C1=CC(CCCO)=CC(c2cccs2)N(Cc2cc3c(cc2Br)OCO3)C=C1C(=O)OCCS(C)(=O)=O (centres undefined) was 0.634
